Origin of the recorded values: PubChem BioAssay (NCI)

Below, each entry is listed with its recorded TGI.
# Tested on: M14 melanoma
# Assay comment: NCI tumour cell line growth inhibition, 48 h

Compound: NC(=O)c1cc(I)ccc1NC(=O)COc1ccccc1
Unit symbol: µM
Result modifier: >
TGI: 100
--
Compound: CC(=O)CC1(C)OC(N)=C(C#N)C1(C#N)C#N (stereo unspecified)
Unit symbol: µM
Result modifier: >
TGI: 100
--
Compound: O=C(Nc1cc(S(=O)(=O)c2ccc(Cl)cc2)ccc1Cl)c1cc(I)cc(I)c1O
Unit symbol: µM
Result modifier: =
TGI: 35
--
Compound: CC1(C)CC(=O)c2c(oc3cc(O)c(O)cc23)C1
Unit symbol: µM
Result modifier: =
TGI: 53.9
--
Compound: CC(=O)O[C@H]1C(=O)N(c2cc3c4ccccc4ccc3c3ccccc23)[C@@H]1c1ccccc1
Unit symbol: µM
Result modifier: =
TGI: 23.1
--
Compound: O=C1/C(=C\c2cccc(Oc3ccccc3)c2)SC(c2ccccc2)N1c1cccc([N+](=O)[O-])c1 (stereo unspecified)
Unit symbol: µM
Result modifier: >
TGI: 100

###

# System: DMS 114 small cell lung
# Assay comment: NCI tumour cell line growth inhibition, 48 h
Quantity measured: TGI

Compound: Cc1ccc(/C=C2\CNC/C(=C\c3ccc(C)cc3)C2=O)cc1
Result: 4.98 µM
--
Compound: C[C@@]12CCCC(=O)N1[C@@H](CO)C(c1ccccc1)O2 (stereo not given in full)
Result: > 100 µM
--
Compound: Nc1c(N=Nc2ccc(-c3ccc(N=Nc4c(O)ccc5cc(S(=O)(=O)O)cc(S(=O)(=O)O)c45)cc3)cc2)c(S(=O)(=O)O)cc2cc(S(=O)(=O)O)c(N=Nc3ccccc3)c(O)c12
Result: > 100 µM
--
Compound: Cc1cc2n([O-])cccc-2[n+](=O)c1
Result: > 100 µM
--
Compound: OC12CCCCCC1(N1CCOCC1)c1ccccc12 (stereo not given)
Result: > 100 µM

###

compounds and their reported TGI
# Test system: HOP-62 NSCLC
# Assay comment: NCI tumour cell line growth inhibition, 48 h
Quantity measured: TGI

Compound: O=S1(=O)OCCOS(=O)(=O)C1Cc1nc2ccccc2[nH]1
Quantity measured: TGI
Result: > 100 µM

Compound: CC(=O)c1ccc(NC(=O)CSc2nc(C)nc3c2sc(=S)n3-c2ccccc2)cc1
Quantity measured: TGI
Result: > 3.16 µM

Compound: CC[C@H](C)[C@H](NC(=O)[C@H]1CCCCN1C)C(=O)N(C)[C@H](C[C@@H](OC(C)=O)c1nc(C(=O)N[C@@H](Cc2ccccc2)C[C@H](C)C(=O)OC)cs1)C(C)C
Quantity measured: TGI
Result: > 25 µM

Compound: N#CCCC1(CCC#N)CCCCCCC(CCC#N)(CCC#N)C(O)C1O (centres undefined)
Quantity measured: TGI
Result: > 100 µM

Compound: O=C(O)C1C(C(=O)O)C2(Cl)C(Cl)=C(Cl)C1(Cl)C2(Cl)Cl.[Cd] (centres undefined)
Quantity measured: TGI
Result: 48.6 µM

Compound: COc1ccc(C2ONC3=NCCN32)cc1 (centres undefined)
Quantity measured: TGI
Result: > 100 µM

Compound: CC(C)(CO)N=Cc1ccccc1[O-].CC(C)(CO)N=Cc1ccccc1[O-].[Co+2]
Quantity measured: TGI
Result: > 100 µM

Compound: [N-]=[N+]=C(C(=O)C(=[N+]=[N-])C(=O)c1ccccc1)C(=O)c1ccccc1
Quantity measured: TGI
Result: > 100 µM

Compound: NC(=S)N/N=C\CC(O)(C(F)(F)F)C(F)(F)F
Quantity measured: TGI
Result: > 10 µM
